- System: LOX IMVI melanoma
- assay_remarks: NCI tumour cell line growth inhibition, 48 h
Listing of recorded TGI by entry.

Nc1nc(-c2ccc3ccccc3c2)cc(-c2cc(-c3ccc4ccccc4c3)nc(N)n2)n1 : > 100 µM
Cc1cc(N)c2cc(NC(=O)Nc3ccc4nc(C)cc(N)c4c3)ccc2n1 : > 100 µM
COc1ccc(Nc2ncccc2C(=O)NCc2cn(Cc3cccc(Oc4ccccc4)c3)nn2)c(OC)c1 : > 100 µM
COc1c(OC)c(OC)c(-c2cc(=O)c3c(OC)c(OC)c(OC)c(OC)c3o2)c(OC)c1OC : > 100 µM

// query Which TGI is reported with LOX IMVI melanoma for this entry: COc1ccc(N2C(=O)C(=O)C3(CCCCC3)C2=O)c(OC)c1OC ?
// result > 100 µM

// query Which TGI is reported with LOX IMVI melanoma for this entry: COC(=O)CN(CC1O[C@@H]2OC(C)(C)O[C@@H]2C1NC(C)=O)C(=O)OCc1ccccc1 (some centres undefined) ?
// result > 100 µM

// query Which TGI is reported with LOX IMVI melanoma for this entry: COc1ccc(OC)c(-c2cc(=O)c3cc4c(cc3[nH]2)OCO4)c1 ?
// result > 100 µM

// query Which TGI is reported with LOX IMVI melanoma for this entry: CC(=O)Nc1ccc(Cc2ccc3[nH]c(=O)cc(C)c3c2)cc1 ?
// result > 100 µM

// query Which TGI is reported with LOX IMVI melanoma for this entry: COc1cc(CC2C(=O)OCC2[C@@H](OC(C)=O)c2ccc3c(c2)OCO3)c(Br)c(OC)c1OC (some centres undefined) ?
// result > 100 µM

----------
- Test system: SK-MEL-2 melanoma
- assay_remarks: NCI tumour cell line growth inhibition, 48 h
Listing of recorded TGI by entry.
Expressed in µM, but write only the number.

Use these answered entries as a reference point.
Oc1[nH]c2ccccc2c1/C=c1/ccc2c(c1)N=C(c1cc(F)cc(F)c1)N=2 : 20.8
CC(=O)Nc1ccc(C(=O)n2[nH]c(C)c(/C=C3\C(=O)C=Cc4ccccc43)c2=O)cc1 : 95.3
O=C1Nc2c(ccc(Cl)c2Cl)/C1=C\c1cc(C(F)(F)F)cc(C(F)(F)F)c1 : 10.9

We next turn to a different molecule, shown below.
// query Requested field: TGI. Item: C[C@]12CCC(=O)C=C1CC[C@@H]1C2CC[C@@]2(C)C1CC[C@@H]2OC(=O)C12OC1CCC2=O (stereo not given in full)
// result 29.8

----------
- System: 786-0 renal
- assay_remarks: NCI tumour cell line growth inhibition, 48 h
readout_kind: TGI

CCOC(=O)C1=C(O)c2ccc(OC)cc2C(=O)C1=O : > 100 µM
Cc1sc2nc3n(c(=O)c2c1C)N=C(c1ccccc1)CS3 : > 100 µM

We next turn to a different compound, shown below.
// query Which TGI is reported with 786-0 renal for this entry: CN(C)CCCN=c1c2ccccc2n(C)c2[nH]c(=O)n(C)c(=O)c12 ?
// result > 64.8 µM

----------
Listing of recorded TGI by entry.
- Tested on: MDA-MB-231 breast
- assay_remarks: NCI tumour cell line growth inhibition, 48 h

Use these answered entries as a reference point.
Cc1cc2nc3c4cc([N+](=O)[O-])ccc4n(CCN(C)C)c3nc2cc1C : > 32.7 µM
CCOC(=O)[C@H](CO)Nc1c(O)c2c(c(O)c1Cl)C(=O)C=CC2=O : > 10 µM
CNC(=O)c1cc(Oc2cccc3nc(NC(=O)Nc4ccc(F)cc4F)ccc23)ccn1 : > 50 µM
COc1cc(/C=C/C2=NN(c3cccc(S(=O)(=O)O)c3)C3(C2)SCC(=O)N3c2nc3ccccc3s2)cc(OC)c1OC (stereo unspecified) : > 100 µM
Cc1ccc(S(=O)(=O)NCCCSCCO)cc1 : > 100 µM
COc1c(OC)c(OC)c(-c2cc(=O)c3c(OC)c(OC)c(OC)c(OC)c3o2)c(OC)c1OC : > 100 µM
COc1cc2oc(-c3ccc(O)cc3)cc(=O)c2c(OC)c1O : > 100 µM
O=C(NCCCl)NCc1ccccc1 : > 100 µM

// query Which TGI is reported with MDA-MB-231 breast for this entry: Nc1nc(Cl)nc2c1ncn2C1OC(CO)C(O)C1O (stereo unspecified) ?
// result > 100 µM

// query Which TGI is reported with MDA-MB-231 breast for this entry: O=C1c2ccccc2C(=O)c2c(NCC3CO3)cccc21 (stereo unspecified) ?
// result > 75 µM

// query Which TGI is reported with MDA-MB-231 breast for this entry: CC1=C(C(=O)NCCCN(CCO)CCO)CC(C(=O)NCCCN(CCO)CCO)=C(C)N1 ?
// result > 100 µM

----------
Listing of recorded TGI by entry.
- Test system: T-47D breast
- assay_remarks: NCI tumour cell line growth inhibition, 48 h

CS(=O)(=O)c1ccc(-c2cnc(NCc3ccco3)n3cnnc23)cc1 : > 100 µM
CCOP(=O)(OCC)C(C)(CC)/N=C(\N)NC#N (stereo unspecified) : > 100 µM
CN(C)CCOc1ccc2[nH]c(C(=O)N3CC(CCl)c4ccc(N)cc43)cc2c1 (stereo unspecified) : > 100 µM
O=C(NCCCl)NCc1ccccc1 : > 100 µM
Cn1c(=O)c(-c2c(Cl)cccc2Cl)cc2cnc(Nc3ccc(I)cc3)nc21 : > 100 µM

We next turn to a different molecule, shown below.
// query Requested field: TGI. Item: COc1cccc(/C=N/NC(=O)CN(C)C)c1O
// result > 100 µM

----------
- System: ACHN renal
- assay_remarks: NCI tumour cell line growth inhibition, 48 h
readout_kind: TGI

Use these answered entries as a reference point.
C=C1CCC2(C(C)=O)COC1(C)O2 (stereo not drawn) : > 100 µM
O=[N+]([O-])c1cccc([I+]c2ccccc2)c1 : > 100 µM

We next turn to a different molecule, shown below.
// query Requested field: TGI. Item: O=C(NCCCc1cn[nH]c(=O)n1)c1cccc2nc3ccccc3nc12
// result > 100 µM

----------
- Tested on: A498 renal
- assay_remarks: NCI tumour cell line growth inhibition, 48 h
Listing of recorded TGI by entry.

Use these answered entries as a reference point.
COc1cccc(/C=N/NC(=O)CN(C)C)c1O : > 100 µM
O=C(Nc1ccc(Cl)cc1)c1cc2ccccc2cc1OP(=O)(O)O : 19.4 µM
Cc1cc2nc3c4cc([N+](=O)[O-])ccc4n(CCN(C)C)c3nc2cc1C : 1.74 µM

// query Requested field: TGI. Item: N/C(=N/N=C/c1cccc(F)c1)NO
// result > 100 µM

// query Requested field: TGI. Item: CCN(CCN(CC)C(=O)NC)C(=O)NC
// result > 100 µM

----------
Listing of recorded TGI by entry.
- Tested on: SNB-19 CNS
- assay_remarks: NCI tumour cell line growth inhibition, 48 h

COC(=O)CC1NC(=O)C1C(C)(OC)OC (stereo unspecified) : > 100 µM
COc1ccc(C=NCCCN=Cc2ccc(OC)cc2O)c(O)c1 : > 100 µM
CC(=O)Nc1ccc(C(=O)n2[nH]c(C)c(/C=C3\C(=O)C=Cc4ccccc43)c2=O)cc1 : > 100 µM
CCCCCCn1c2c(c3c(O)cccc31)C(=O)c1ccccc1-2 : > 100 µM

// query Requested field: TGI. Item: c1ccc(Sc2nc(Sc3ccccc3)nc(Sc3ccccc3)n2)cc1
// result > 100 µM

----------
- System: RPMI-8226 leukemia
- assay_remarks: NCI tumour cell line growth inhibition, 48 h
Listing of recorded TGI by entry.
Expressed in µM, but write only the number.

O=C1c2ccccc2-c2ccccc2C1(Cl)Cl : 2.63

// query Requested field: TGI. Item: Brc1ccc(C[N+]23CN4CN(CN(C4)C2)C3)cc1
// result 59.5

----------
Listing of recorded TGI by entry.
- Tested on: NCI-H522 lung
- assay_remarks: NCI tumour cell line growth inhibition, 48 h

Use these answered entries as a reference point.
CCOC(=O)c1cc([N+](=O)[O-])cc([N+](=O)[O-])c1Sc1ncnc2nc[nH]c12 : 4.39 µM
COc1cc2nc3n(c(=O)c2cc1OC)CCCCC3 : > 100 µM
COc1ccc(/C=C(\C2=NC(=O)CS2)c2nc3ccccc3[nH]2)cc1 : 49.7 µM
O=C1[C@H](O)[C@@H]2CCC[C@@]23CCCN13 : > 100 µM
COC(=O)[C@H](C)[C@@H]1CC[C@](C)(CCC2=C(C)CCCC2(C)C)OO1 : > 25 µM
COc1cccc(/C=C2\CCc3ccccc3C2=O)c1 : 22.3 µM
O=C1C(=Cc2ccc([N+](=O)[O-])o2)C(=O)N(CCc2ccccc2)S(=O)(=O)N1CCc1ccccc1 : 34.5 µM
Cc1ccc(O)cc1 (tested in a mixture with another compound) : > 100 µM
O=c1[nH]c(-c2ccc(Cl)cc2)cc2ccsc12 : > 100 µM
O=C(Nc1nc(-c2ccccc2Cl)cs1)c1cc(-c2ccc(Cl)cc2)nc2ccc(Cl)cc12 : 42.6 µM

// query Requested field: TGI. Item: N/C(=N\C(N)=N\c1nc2ccccc2s1)c1ccnc(Br)c1
// result > 100 µM

// query Requested field: TGI. Item: Cc1cc(Cl)ccc1Nc1nc2c(s1)C(=O)c1ccccc1C2=O
// result 4.08 µM

// query Requested field: TGI. Item: CON(C(=O)OC(C)(C)C)c1ccccc1
// result > 100 µM

// query Requested field: TGI. Item: Cc1cc2nc3c4cc([N+](=O)[O-])ccc4n(CCN(C)C)c3nc2cc1C
// result 4.94 µM

// query Requested field: TGI. Item: c1ccc(Sc2nc(Sc3ccccc3)nc(Sc3ccccc3)n2)cc1
// result > 100 µM

// query Requested field: TGI. Item: CC1(C)OC2[C@@H](CO[C@@]3([C@H]4OC(C)(C)O[C@@H]4CO)OC(C)(C)O[C@@H]23)O1 (some centres undefined)
// result > 100 µM

// query Requested field: TGI. Item: Cc1ccc(S(=O)(=O)NCCCSCCO)cc1
// result > 100 µM
